# System: K4 kissing-loop RNA reporter;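 further: bound reporter read as fluorescence of individual clusters on recovered sequencing chips by microscopy, with normalized cluster intensities fitted with a binding model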
# METHOD_SUMMARY: apparent KD of K4 kissing-loop reporter; higher = weaker reporter binding
# TEST_CONDITIONS: Eterna round: R107; input ligand: tryptophan 2.4 mM
Reported apparent KD of K4 kissing-loop reporter values are given for each entry in this list.
// note: answer is a bare numeric in nM

Some solved entries appear below for comparison.
SEQUENCE_STRING	TEST_SYSTEM	READOUT_UNIT	MEASURED_VALUE
CCAAUCUGUUACGAUACCAGUCAAAGAUAUUUGAUCAAUACCCUCACCGAGUGAUGUUCGGACCCUUGGCAGCGUCUGGGAUAGG [ceevmullin]	K4 kissing-loop RNA reporter	nM	193
CCCGGUCCACGAAGGAGCGCCGUGCAGUGAUGUUGCAGUUAGAUCCAGUGAUGUUUGGGCCGGCAGGUAGGUCGCGUGGCCCGGG [Excusion Arginine B GF 24]	K4 kissing-loop RNA reporter	nM	188
UGACAUUGCUCAGAUACCAGACUUGAGGAACACCCAAGUGCCAAAUACGUACAAAUAAAAGUCCCUUGGCAGCUGAGCAAUGUCU [TheoBX 12]	K4 kissing-loop RNA reporter	nM	38.5
GCCGUACGCAUGGAUACCAGCAAGUAUAUAUGCUAGUGAUGUUAGCGCUAUGCGAUGCGGUGCCCUUGGCAGCCAUGCGUACGGC	K4 kissing-loop RNA reporter	nM	102

// apparent KD of K4 kissing-loop reporter lookup, sequence = AUCUGGUUGGGCGAUACCAGUUUGGCAUAGUGAUGUUAUGCAACGCUCAGUGCAAGGCCAAACCCUUGGCAGCGCACAUCCUUUC [theeternabot_exclusion_KL_Theo_B_3] , result: 105

For reference, reported apparent KD of K4 kissing-loop reporter for CGCAAGCAGCCAGUGAUGUUGGCCGCCUUGCGAGGACCGGUACGGCCGCCACUCGAAGGCGGCUACUGGUAAACCGCCUAACGGA [Onzaenla] stands at 96.4

###

# Tested on: MS2 coat protein
# METHOD_SUMMARY: apparent KD of MS2 coat protein; designed switch direction (-1 OFF switch, 1 ON switch): -1; higher = weaker reporter binding
# TEST_CONDITIONS: input ligand: none
Known apparent KD of MS2 coat protein of a selection of sequences

SEQUENCE_STRING	TEST_SYSTEM	apparent KD of MS2 coat protein
GGGAGAGAGUGAGGAUAUCAAAGAACAUGAGGAUCACCCAUGUAACCUCAUGUAAGAAGAAGAAGUGAGAAGGCACAGGAGGGU [Default title] (Eterna round: R96, puzzle: Exclusion NG 2)	MS2 coat protein	628 nM
UAGUGAAACACAGGAUAUCGCCUCUUAUUACAUGAGGAUCACCCAUGUUUAGUUAGUUACAUGUACGAGAAGGGUGAAGUAGUU [JR_ExcNG2_Sub040] (Eterna round: R96, puzzle: Exclusion NG 2)	MS2 coat protein	1430 nM
CCCAGUUAGAGAGGAUAUCUUACAUGAGGAUCACCCAUGUAAUAAAUGAGGAUUUCGGGUGUCUAAGAGAAGGCUCGGAUAGGC [Ostracism 29 - Jieux - Exclusion NG 2] (Eterna round: R96, puzzle: Exclusion NG 2)	MS2 coat protein	26.4 nM

Entry CUGAGCUGAGGAUAUACAUGAGGAUCACCCAUGUUAAGCAGCUAGUGAAGAAGUAGAUGUAGAAGGCAGUUCGG [Mod of JL 21 - Jieux - Exclusion 3] (Eterna round: R97, puzzle: Exclusion 3) ; apparent KD of MS2 coat protein = 21 nM

So, CAGUACUGAGGAUAUACAUGAGGAUCACCCAUGUGUGUGAGUUUUGUAUGAAUGUUAUGUAGAAGGCGGUGCUG [JR_Ex3_Sub034] (Eterna round: R97, puzzle: Exclusion 3) ? Its apparent KD of MS2 coat protein was 504 nM

Reported apparent KD of MS2 coat protein of CUGGUUGUCGAGGAUAUGCACCGGCUCGCUGACGCAGAAGGCGACACAUGAGGAUCACCCAUGUCGGUUCGCGU [salish99_ex6_r004_438] (Eterna round: R97, puzzle: Exclusion 6) : 19.1 nM

Short answer for AUUUUGUCAGGAUAUUGUUAGUUUAGUUGUUUGUAUUAGUUCGAGAAGGGACAUGAGGAUCACCCAUGUGAUAA [Ex4 #72] (Eterna round: R97, puzzle: Exclusion 4) : apparent KD of MS2 coat protein was 62.6 nM

// apparent KD of MS2 coat protein value for GUAAUGAUUGUGAGGAUAUUUCAUAGAUAGAUAUUAGAGAAGGUACAUGAGGAUCACCCAUGUGUGAUUAUACA [Brourd's EX4 #72] (Eterna round: R97, puzzle: Brourd's mod of Exclusion 4) : 114 nM

UAAAAGUGAGGAUAUACGUGAAAUCCGCCAGGCGGAGAUCUACAUGAGGAUCACCCAUGUAGAAGGCACGGAAU [EX2 A.13] (Eterna round: R97, puzzle: Exclusion 2) has a reported apparent KD of MS2 coat protein of 14 nM

Notebook: GUUUUCAGACGGAGAUCCUACAUGAGGAUCACCCAUGUCUCACUUGUUUUUUGCUCGUCUUAUCCUCCUCUGUUCUC [Elimod 30 - Jieux - Sensor, turn-off variant 1] (Eterna round: R97, puzzle: Sensor, turn-off variant 1) , apparent KD of MS2 coat protein read as 667 nM

Input AGUGUGUGGCAGGAUAUGCUAUUGAUUGGUGAAGCAGAAGGGUCUACAUGAGGAUCACCCAUGUAAGCGGUUGA [Ex6 #28] (Eterna round: R97, puzzle: Exclusion 6) . Output apparent KD of MS2 coat protein: 46.4 nM

Recorded apparent KD of MS2 coat protein (sequence GAUUAACAUGAGGAUCACCCAUGUGAGGAUAUGGACUUGCCCACUUACCCAUUAGAGUCUAGAAGGCGCAUCUG [1986#23] (Eterna round: R97, puzzle: Exclusion 1) ): 49.8 nM

Query ACAAGAAUAGGAUAUACAACAUGCCAGCUUCUUUACAACGCACAUGAGGAUCACCCAUGUAGAAGGGUUCUCUG [Exclusion-2-#14] (Eterna round: R97, puzzle: Exclusion 2) yields apparent KD of MS2 coat protein of 329 nM
